- Measurement target: Tyrosinase (Agaricus bisporus) (UniProt O42713)
- Sequence (O42713 whole entry): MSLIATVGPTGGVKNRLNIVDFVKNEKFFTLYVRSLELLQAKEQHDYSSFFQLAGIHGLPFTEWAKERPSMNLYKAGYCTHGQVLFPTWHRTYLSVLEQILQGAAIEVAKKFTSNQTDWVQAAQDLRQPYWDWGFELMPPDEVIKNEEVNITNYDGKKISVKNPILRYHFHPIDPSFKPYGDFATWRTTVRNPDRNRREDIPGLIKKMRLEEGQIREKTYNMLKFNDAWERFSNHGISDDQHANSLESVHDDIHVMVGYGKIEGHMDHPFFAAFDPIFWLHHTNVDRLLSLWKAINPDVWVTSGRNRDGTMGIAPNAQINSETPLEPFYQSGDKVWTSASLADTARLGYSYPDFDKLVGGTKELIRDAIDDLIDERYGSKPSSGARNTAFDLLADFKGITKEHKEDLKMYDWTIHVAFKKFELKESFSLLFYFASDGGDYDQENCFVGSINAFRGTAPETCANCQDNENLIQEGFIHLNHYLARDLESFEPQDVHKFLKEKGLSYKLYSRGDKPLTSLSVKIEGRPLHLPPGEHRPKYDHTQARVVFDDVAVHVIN
- Protocol description: Inhibition of mushroom tyrosinase at 200 uM
# maps each entry to its inhibition

{"Compound": "O=C1NC(=O)C(Cc2ccc(O)cc2)C(=O)N1", "inhibition": "47.5%"}
{"Compound": "CCCCOCCOc1ccc(CC2C(=O)NC(=S)NC2=O)cc1", "inhibition": "78.7%"}
{"Compound": "COCCOCCOc1ccc(CC2C(=O)NC(=S)NC2=O)cc1", "inhibition": "97.5%"}
{"Compound": "COCCOc1ccc(CC2C(=O)NC(=O)NC2=O)cc1", "inhibition": "23.1%"}
{"Compound": "O=Cc1ccc(O)cc1 [4-HYDROXYBENZALDEHYDE]", "inhibition": "16.4%"}
{"Compound": "COCCCCOc1ccc(CC2C(=O)NC(=O)NC2=O)cc1", "inhibition": "1.15%"}
{"Compound": "O=C1CC(=O)NC(=O)N1", "inhibition": "5.95%"}
{"Compound": "O=C1NC(=S)NC(=O)C1=Cc1ccc(O)cc1", "inhibition": "100%"}
{"Compound": "CCCCOCCOc1ccc(C=C2C(=O)NC(=O)NC2=O)cc1", "inhibition": "100%"}
{"Compound": "COc1ccc(/C=C/C(=O)O)cc1", "inhibition": "46.6%"}
{"Compound": "O=C1NC(=S)NC(=O)C1Cc1ccc(O)cc1", "inhibition": "100%"}

----------
- Tested on: Staphylococcus aureus
- Protocol description: Antibacterial activity against Staphylococcus aureus after 24 hrs by agar dilution method
- Assay type: functional
Parameter: MIC

{"Structure as smiles": "CCCCOCCOc1ccc(C=C2C(=O)NC(=O)NC2=O)cc1", "Observed result": "> 25 µg/mL"}
{"Structure as smiles": "O=C1NC(=S)NC(=O)C1Cc1ccc(OCCO)cc1", "Observed result": "> 25 µg/mL"}
{"Structure as smiles": "O=C1NC(=O)C(=Cc2ccc(OCCO)cc2)C(=O)N1", "Observed result": "> 25 µg/mL"}
{"Structure as smiles": "COCCOc1ccc(C=C2C(=O)NC(=O)NC2=O)cc1", "Observed result": "> 25 µg/mL"}
{"Structure as smiles": "O=C1NC(=S)NC(=O)C1=Cc1ccc(OCCO)cc1", "Observed result": "> 25 µg/mL"}
{"Structure as smiles": "COCCCCOc1ccc(C=C2C(=O)NC(=S)NC2=O)cc1", "Observed result": "> 25 µg/mL"}
{"Structure as smiles": "COCCOCCOc1ccc(CC2C(=O)NC(=S)NC2=O)cc1", "Observed result": "> 12.5 µg/mL"}
{"Structure as smiles": "COCCOc1ccc(CC2C(=O)NC(=S)NC2=O)cc1", "Observed result": "> 12.5 µg/mL"}

----------
# maps each entry to its inhibition
- Measurement target: Tyrosinase (Agaricus bisporus) (UniProt O42713)
- Protocol description: Inhibition of mushroom tyrosinase at 200 uM

{"Structure as smiles": "COCCCCOc1ccc(C=C2C(=O)NC(=O)NC2=O)cc1", "Measurement target": "Tyrosinase (Agaricus bisporus) (UniProt O42713)", "inhibition": "12.2%"}
{"Structure as smiles": "COCCOc1ccc(C=C2C(=O)NC(=O)NC2=O)cc1", "Measurement target": "Tyrosinase (Agaricus bisporus) (UniProt O42713)", "inhibition": "100%"}
{"Structure as smiles": "O=C1NC(=O)C(=Cc2ccc(O)cc2)C(=O)N1", "Measurement target": "Tyrosinase (Agaricus bisporus) (UniProt O42713)", "inhibition": "100%"}
{"Structure as smiles": "COCCOCCOc1ccc(CC2C(=O)NC(=O)NC2=O)cc1", "Measurement target": "Tyrosinase (Agaricus bisporus) (UniProt O42713)", "inhibition": "14.3%"}
